Reference source for all entries: patent US20240208992A1

EC50 values by entry
# study target: human F508del-CFTR (Homo sapiens, UniProt P13569, DEL508-508)
# Sequence (P13569 with tags, fused parts or gaps DEL508-508): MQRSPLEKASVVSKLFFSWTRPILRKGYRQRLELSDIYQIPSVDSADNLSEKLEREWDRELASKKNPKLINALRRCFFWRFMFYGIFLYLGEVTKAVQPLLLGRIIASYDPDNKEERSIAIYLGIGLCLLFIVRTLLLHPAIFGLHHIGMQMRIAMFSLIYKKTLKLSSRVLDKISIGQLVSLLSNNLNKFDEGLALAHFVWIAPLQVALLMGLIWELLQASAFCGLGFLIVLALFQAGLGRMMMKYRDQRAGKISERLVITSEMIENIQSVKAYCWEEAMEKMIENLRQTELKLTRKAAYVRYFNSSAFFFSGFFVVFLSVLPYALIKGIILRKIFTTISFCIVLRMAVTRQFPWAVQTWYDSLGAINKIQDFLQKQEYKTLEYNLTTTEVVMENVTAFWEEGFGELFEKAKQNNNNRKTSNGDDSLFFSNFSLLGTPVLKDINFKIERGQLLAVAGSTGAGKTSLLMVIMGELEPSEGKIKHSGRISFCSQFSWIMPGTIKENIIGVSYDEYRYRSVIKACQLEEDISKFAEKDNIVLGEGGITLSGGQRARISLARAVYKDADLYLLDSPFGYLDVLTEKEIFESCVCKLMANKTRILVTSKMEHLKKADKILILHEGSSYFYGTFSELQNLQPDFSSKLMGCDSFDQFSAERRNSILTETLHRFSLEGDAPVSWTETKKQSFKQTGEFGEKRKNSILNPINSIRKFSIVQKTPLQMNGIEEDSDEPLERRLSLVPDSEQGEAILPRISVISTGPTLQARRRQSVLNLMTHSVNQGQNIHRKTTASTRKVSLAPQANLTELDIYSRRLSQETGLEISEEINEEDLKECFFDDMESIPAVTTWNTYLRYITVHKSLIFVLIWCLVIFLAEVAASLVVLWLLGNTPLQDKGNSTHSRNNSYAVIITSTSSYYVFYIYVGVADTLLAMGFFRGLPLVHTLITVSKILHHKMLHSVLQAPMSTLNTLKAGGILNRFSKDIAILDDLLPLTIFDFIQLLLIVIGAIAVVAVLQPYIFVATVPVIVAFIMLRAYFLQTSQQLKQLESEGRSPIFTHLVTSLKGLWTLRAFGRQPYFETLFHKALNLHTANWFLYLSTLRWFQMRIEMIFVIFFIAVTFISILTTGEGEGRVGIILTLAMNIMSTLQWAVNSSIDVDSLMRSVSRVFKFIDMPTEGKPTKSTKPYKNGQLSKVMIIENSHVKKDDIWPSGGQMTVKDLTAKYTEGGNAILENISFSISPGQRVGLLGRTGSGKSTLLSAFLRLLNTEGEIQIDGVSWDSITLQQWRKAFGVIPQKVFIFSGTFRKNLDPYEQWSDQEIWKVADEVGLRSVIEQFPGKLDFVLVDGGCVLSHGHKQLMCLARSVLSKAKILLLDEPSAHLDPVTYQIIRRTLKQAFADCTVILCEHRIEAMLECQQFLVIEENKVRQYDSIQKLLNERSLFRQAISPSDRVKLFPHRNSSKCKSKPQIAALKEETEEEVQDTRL
# assay details: F508del-CFTR cell surface expression (corrector activity), DiscoveRx ß-galactosidase complementation chemiluminescence assay in recombinant U2OS cell line;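 note: U2OS cells co-expressing ProLink-tagged F508del-CFTR and a membrane-anchored enzyme acceptor, where more surface CFTR restores β-galactosidase activity measured by chemiluminescence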
# cond: EC50, F508del-CFTR cell surface expression, U2OS cell line, 16h compound incubation; geomean values
The response must be a number in µM with no trailing unit.

compound	unit abbrev	EC50
CN1C(=O)C[C@@H](C(=O)NCCc2ccc3c(c2)OCO3)NC(=O)c2c(ccc3ccccc23)OC[C@@H](Cc2ccccc2)NC(=O)CN(CCC2CCCCC2)C(=O)[C@@H]1CC1CC1 [Example 341]	µM	0.144
COc1cc(CCNC(=O)[C@@H]2CC(=O)N(C)[C@@H](CC(C)C)C(=O)N(CCC3CCCCC3)CC(=O)N[C@H](Cc3ccccc3)COc3cccc(OC)c3C(=O)N2)ccc1N [Example 218]	µM	0.353
CC(C)C[C@H]1C(=O)N(C)C2(CC2)C(=O)N[C@H](Cc2ccccc2)COc2cnc3ccccc3c2C(=O)N[C@H](C(=O)NCCc2noc(C3CC3)n2)CC(=O)N1C [Example 115]	µM	0.38
COCCCNC(=O)[C@@H]1CC(=O)N(C)[C@@H](CC(C)C)C(=O)N(CCC2CCCCC2)CC(=O)N[C@H](Cc2ccccc2)COc2cccc(OC)c2C(=O)N1 [Example 210]	µM	0.352
CC(C)C[C@H]1C(=O)N2CCOC[C@@H]2C(=O)N[C@H](Cc2ccccc2)COc2cnc3ccccc3c2C(=O)N[C@H](C(=O)NCCc2c(F)cccc2F)CC(=O)N1C [Example 68]	µM	0.448
COc1cccc2c1C(=O)N[C@H](C(=O)NCCc1ccc3c(c1)OCO3)CC(=O)N(C)[C@@H](CC1CC1)C(=O)N(CCC1CCCCC1)CC(=O)N[C@H](Cc1ccccc1)CO2 (mixture of isomers) [Example 274]	µM	0.288
CN1C(=O)C[C@@H](C(=O)NCCc2ccc3c(c2)OCO3)NC(=O)c2c(ccc3ccccc23)OC[C@@H](Cc2ccccc2)NC(=O)CN(C[C@H]2CCCCO2)C(=O)[C@@H]1CC1CC1 [Example 340]	µM	0.278
[2H]C([2H])([2H])Oc1cccc(CCNC(=O)[C@@H]2CC(=O)N(C)[C@@H](CC(C)C)C(=O)N(C)CC(=O)N[C@H](Cc3ccccc3)COc3cnc4ccccc4c3C(=O)N2)c1 [Example 320]	µM	0.363

In: Give its EC50 value. Item: COc1cccc(CCNC(=O)[C@@H]2CC(=O)N(C)[C@@H](CC(C)C)C(=O)N(CCC3CCCCC3)CC(=O)N[C@H](Cc3ccccc3)COc3ccc(OC)cc3C(=O)N2)c1 [Example 249]
Out: 0.116

In: Give its EC50 value. Item: CC(C)C[C@H]1C(=O)N2CCCC[C@@H]2C(=O)N[C@H](Cc2ccccc2)COc2cnc3ccccc3c2C(=O)N[C@H](C(=O)NCCc2cccc(-c3ncccn3)c2)CC(=O)N1C [Example 123]
Out: 0.873

In: Give its EC50 value. Item: COc1cc2c(cc1OC)C(=O)N[C@H](C(=O)NCCc1ccc3c(c1)OCO3)CC(=O)N(C)[C@@H](CC1CC1)C(=O)N(CCC1CCCCC1)CC(=O)N[C@H](Cc1ccccc1)CO2 (racemic) [Example 9]
Out: 0.36

In: Give its EC50 value. Item: CC(C)C[C@H]1C(=O)N(CC[C@@H]2CCCCO2)CC(=O)N[C@H](Cc2ccccc2)COc2ccc3ccccc3c2C(=O)N[C@H](C(=O)NCCc2ccc3c(c2)OCO3)CC(=O)N1C [Example 362]
Out: 0.153

In: Give its EC50 value. Item: CC(C)C[C@H]1C(=O)N(C)C2(CC2)C(=O)N[C@H](Cc2ccccc2)COc2cnc3ccc(F)cc3c2C(=O)N[C@H](C(=O)NCCc2cccc(-c3ncccn3)c2)CC(=O)N1C [Example 138]
Out: 0.538

In: Give its EC50 value. Item: CCc1ccc(CCNC(=O)[C@@H]2CC(=O)N(C)[C@@H](CC(C)C)C(=O)N(C)CC(=O)N[C@H](Cc3ccccc3)COc3cc4c(cc3C(=O)N2)OCO4)cc1 [Example 227]
Out: 0.29
